System: K4 kissing-loop RNA reporter;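 further: bound reporter read as fluorescence of individual clusters on recovered sequencing chips by microscopy, with normalized cluster intensities fitted with a binding model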
Measurement Protocol: apparent KD of K4 kissing-loop reporter; higher = weaker reporter binding
Condition Set: Eterna round: R107; input ligand: arginine 13.2 mM

Sequence Chain	Tested Target	apparent KD of K4 kissing-loop reporter [nM]
UAGGCCGCAUACAUUAGAUAAGGUACCGAUACCAGCCUCGCACCAGGCCCUUGGCAGCGGCAUCAAAUGGGUAGUGAUGUUACCU [theeternabot_exclusion_KL_Theo_A_20]	K4 kissing-loop RNA reporter	135
UUAUAAUUCAGUGAUGUUGAAAAUAUAACAGAGGAUAUGCGUUUAAGCAGAAGGCUGAAAUACUAUACUUUAAUCUAUUAAAUUU [JR_SSFMNA_Sub019]	K4 kissing-loop RNA reporter	377
CUUGGAAGGACGGCCGCCACUCGACAGUGAUGUUGUCCGAGUGGGUAGCGCAGUGAUGUUGUGUCGAGGACCGGGUCCUAGGAAU [Exclusion Tryptophan B GF 27]	K4 kissing-loop RNA reporter	149
CUAUGAGUGAUGUUCGUAGGUUGGGCUUGGCAGGAUAUGGGAUCUUCCAGAAGGGCCGAUUCCGGCGAGUGAUGUUCGUUGGUCU [Exclusion FMN A GF30]	K4 kissing-loop RNA reporter	42.1
UGGACCUGACUCGAUAAGAGUCAAUGAGAUACCAGUGACGAAAGUCACCCUUGGCAGCUCCUGCCAGUGAUGUUGGUAAGGUCCU [#SwitchBubble 4 #StaticStem]	K4 kissing-loop RNA reporter	252
UACGCUUACUUGCGCGGUCCGAUUAACGAUACCAGCGAAGAAGCCCGCCCUUGGCAGCGUUAUAGAGUGAUGUUCACGGAGAUUA [theeternabot_sameState_KL_Theo_A_12]	K4 kissing-loop RNA reporter	872
UGUGUUUACCUGACUCAGUGAUGUUGAGAAGGAGCGUGAGAAGGCACAGGUAGGUCGCUCAACCUAAAUUCAGGUGAGCACUAAA	K4 kissing-loop RNA reporter	188
UGACUGGAUGGAAGGAGCGCUAAACUCCUAGUGAUGUUAGGGACAUGAGGCAAAGCCUUGAAGCAGGUAGGUCGCCAUCUAGUCU [FiskerMod 27 - Jieux - Same State - Arginine B]	K4 kissing-loop RNA reporter	133
GCCAGUGAUGUUGGCAUUUCGAGCCAUGAAGGAGCGCACGGAAGUGCAGGUAGGUCGCAUGGUACUUAGGAUAUUAUCCUAAGUA [Antearxe]	K4 kissing-loop RNA reporter	169
UUAUUAAUCACAGAUACCAGUCCAGAAUGAAUACUAUAGUGAUGUUAUAAUAAAGGGAAGGACCCUUGGCAGCUGUAAUAUAUUU [AstrosSsTheB#2]	K4 kissing-loop RNA reporter	370
UGGAGUUGACGAAAAGUCAACUCCUGAGAUACCAGUGACGAAAGUCACCCUUGGCAGCUCACUGGCAGUGAUGUUGCUAAAUAAA [KL-SSTheo-A2]	K4 kissing-loop RNA reporter	51.4
AAAAUAAAGCAGUGAUGUUGCUUAUGAGAAGGAGCGCACGAAAGUGCAGGUAGGUCGCUCAGCCAAGUGGACGAAAACGUCCACA [#OpenEnded 10 #K4Early]	K4 kissing-loop RNA reporter	122
AAAUAAGCUCAUGAUACCAGCCAGUGAUGUUGGUUGGUCCACCGUGUCCGAACAUUAAGCGGCCCUUGGCAGCAUGAUGCGCGUA [Xearxea]	K4 kissing-loop RNA reporter	98.5
UGACUGGACUGAAGGAGCGGGCGAGACAAAGUCUCGAACUGCUAGUGAUGUUAGCAAAUAACCCAGGUAGGUCGCAGUCUAGUCU	K4 kissing-loop RNA reporter	100
ACAGUCGGCUGUGAUACCAGUCGUAUUACAACAUGUUGCAGUGAUGUUGCGAGAUAGGAUGACCCUUGGCAGCACUCAGUACGAC [Same State Theophylline B GF10]	K4 kissing-loop RNA reporter	135
AGACUUCACCGAAGGAGCGACGUAGCCUAGUGAUGUUAGGCACGAGAGAAAUCUCGUAUACGUCAGGUAGGUCGCGGUGAAGUCA [Omei KL Arginine B SS C v1]	K4 kissing-loop RNA reporter	138
UCCUGCAAUCGACCACGAAAGUGGUUCGAUACCAGAGUCGAAAGACUCCCUUGGCAGCGAGUGAUGUUCGAGCAGGUAAAAUAAA	K4 kissing-loop RNA reporter	436
AGACGUUUGGGAAGGAGCGGAAUGUAAUACGGAACGCGUGGAGGUGCAGUGAUGUUGCAGAUCCAGGUAGGUCGCCCAAGGGACG [Esenraerve]	K4 kissing-loop RNA reporter	122

Reference source for all entries: the supplement of paper PMC9170038
